Cited source for all entries: paper PMC5681660

Biological target: human NTCP (Homo sapiens, UniProt Q14973)
Sequence (Q14973 1-349): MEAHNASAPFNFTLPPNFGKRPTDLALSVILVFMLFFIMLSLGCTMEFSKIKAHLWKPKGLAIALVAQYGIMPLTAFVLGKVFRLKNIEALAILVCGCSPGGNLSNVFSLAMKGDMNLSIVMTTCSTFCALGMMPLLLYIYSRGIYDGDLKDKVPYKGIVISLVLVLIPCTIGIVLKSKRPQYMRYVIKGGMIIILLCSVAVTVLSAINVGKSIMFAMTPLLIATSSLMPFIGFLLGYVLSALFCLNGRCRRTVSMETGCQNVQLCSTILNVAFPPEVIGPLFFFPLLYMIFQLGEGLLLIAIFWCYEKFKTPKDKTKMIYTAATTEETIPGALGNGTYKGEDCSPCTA
Assay: Screening taurocholate uptake assay (96-well, [14C]taurocholate, 10 µM drug)
Counter-ions that a name gives are not always drawn.
Label scheme for B-score functional assay: lower than 0.1 is criterion not met, 0.1 and above is criterion met.

[in] Check the entry CCC(=O)O[C@@](Cc1ccccc1)(c1ccccc1)[C@@H](C)CN(C)C [Levopropoxyphene napsylate] : does B-score functional assay equal or exceed 0.1?
[out] criterion met

[in] // query: C[C@]12CC[C@H](O)C[C@@H]1CC[C@@H]1[C@@H]2CC[C@]2(C)C(=O)CC[C@@H]12 [Epiandrosterone]
[out] criterion met

[in] // query: COc1cc2nc(N3CCN(C(=O)C4COc5ccccc5O4)CC3)nc(N)c2cc1OC (stereo not shown) [Doxazosin mesylate]
[out] criterion not met

Further cases:
[in] Check the entry CN[C@H](CC(C)C)C(=O)N[C@H]1C(=O)N[C@@H](CC(N)=O)C(=O)N[C@H]2C(=O)N[C@H]3C(=O)N[C@H](C(=O)N[C@H](C(=O)O)c4cc(O)cc(O)c4-c4cc3ccc4O)[C@H](O)c3ccc(c(Cl)c3)Oc3cc2cc(c3O[C@@H]2O[C@H](CO)[C@@H](O)[C@H](O)[C@H]2O[C@H]2C[C@](C)(N)[C@H](O)[C@H](C)O2)Oc2ccc(cc2Cl)[C@H]1O [Vancomycin hydrochloride] : does B-score functional assay equal or exceed 0.1?
[out] criterion not met

[in] // query: C[C@]12C[C@H]3S[C@H]3C[C@@H]1CC[C@@H]1[C@@H]2CC[C@]2(C)[C@@H](O)CC[C@@H]12 [Epitiostanol]
[out] criterion met

[in] // query: C[C@]12COC(=O)C[C@@H]1CC[C@@H]1[C@@H]2CC[C@@]2(C)[C@H]1CC[C@]2(C)O
[out] criterion not met

[in] // query: Cc1c(N)c(=O)n(-c2ccccc2)n1C
[out] criterion met

---

Entries and their measured Ranking score follow.
Biological target: human NTCP (Homo sapiens)
Sequence (Q14973 1-349): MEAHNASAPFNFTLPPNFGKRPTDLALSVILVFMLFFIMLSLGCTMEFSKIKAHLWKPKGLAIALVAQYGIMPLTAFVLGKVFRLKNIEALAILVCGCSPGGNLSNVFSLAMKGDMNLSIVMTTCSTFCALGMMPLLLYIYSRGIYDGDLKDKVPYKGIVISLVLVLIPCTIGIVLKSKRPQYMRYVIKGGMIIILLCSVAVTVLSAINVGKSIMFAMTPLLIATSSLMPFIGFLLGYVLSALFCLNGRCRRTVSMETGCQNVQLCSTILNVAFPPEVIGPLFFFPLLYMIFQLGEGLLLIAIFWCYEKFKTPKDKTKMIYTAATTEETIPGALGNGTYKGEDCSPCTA
Assay: Screening taurocholate uptake assay (96-well, [14C]taurocholate, 10 µM drug)
Details: ranking over the functional and the binding screening assay
Kindly provide the number alone.

[in] Request - read-out Ranking score | tested on human NTCP (Homo sapiens) | molecule C[C@]12CC[C@@H]3c4ccc(OC(=O)N(CCCl)CCCl)cc4CC[C@H]3[C@@H]1CC[C@@H]2O [Estramustine]
[out] 134.744

[in] // query: CCCCCN(C)CCC(O)(P(=O)([O-])O)P(=O)(O)O.[Na+] [Ibandronate sodium]
[out] 183.606

[in] // query: Cc1cccc(Nc2ccccc2C(=O)O)c1C [Mefenamic acid]
[out] 180.289

[in] // query: CCC1(C)CC(=O)NC(=O)C1 [Bemegride]
[out] 76.1315

[in] // query: O=C(Nc1cccc2c(=O)cc(-c3nnn[nH]3)oc12)c1ccc(OCCCCc2ccccc2)cc1 [Pranlukast]
[out] 43.359

Now for a further molecule.
[in] Request - read-out Ranking score | tested on human NTCP (Homo sapiens) | molecule N[C@@H](Cc1ccc(O)c(O)c1)C(=O)O [Levodopa]
[out] 265.141
